measurement.protocol: Hydrolytic stability of 19F fluorosilanes (hydrolysis to the hydroxy compound) at physiological pH
Format: physicochemical
assay.setup: buffer; fraction of intact 19F compound after 6 hours under hydrolytic conditions at pH 7
Each entry below carries its reported remaining at 6 h.
Lab book: enter the figure in %, no units written.

compound: CC(C)[Si](F)(c1ccc(CCCO)cc1)C(C)C [4c - F]
measured.endpoint: remaining at 6 h
experimental.value: 90
--
compound: CC(C)C[Si](F)(CCCCC(=O)Nc1ccccc1)CC(C)C [30a - 1F]
measured.endpoint: remaining at 6 h
experimental.value: 71
--
compound: CC(C)C[Si](F)(CC(C)C)c1ccc(COC2CCCCO2)cc1 (racemic) [Compound 3g-F]
measured.endpoint: remaining at 6 h
experimental.value: 59
--
compound: CC(C)[Si](F)(c1cccc(CC(=O)O)c1)C(C)C [5e - F]
measured.endpoint: remaining at 6 h
experimental.value: 78
--
compound: CC(C)C[Si](F)(CC(C)C)c1ccc(CCOC2CCCCO2)cc1 (racemic) [Compound 3h-F]
measured.endpoint: remaining at 6 h
experimental.value: 79

What remaining at 6 h value was documented for this compound, CC(C)[Si](F)(c1ccc(CCOC2CCCCO2)cc1)C(C)C (racemic) [3b - F] ?
94

Next compound: CC(C)C[Si](F)(CC(C)C)c1ccc(C(=O)O)cc1 [5g - F]
31

Next compound: CC(C)[Si](F)(c1cccc(CCC(=O)O)c1)C(C)C [5d - F]
81

Next compound: CC(C)[Si](F)(c1ccc(CCO)cc1)C(C)C [4b - F]
84

Next compound: CC(C)[Si](F)(CCCNC(=O)c1ccccc1)C(C)C [22 - F]
83

Next compound: CC(C)[Si](F)(c1cccc(CCO)c1)C(C)C [4e - F]
78

Next compound: CC(C)[Si](F)(c1cccc(CCCO)c1)C(C)C [4d - F]
89

###

Each entry below carries its reported half-life.
measurement.protocol: Hydrolytic stability of 19F fluorosilanes (hydrolysis to the hydroxy compound) at physiological pH
Type: physicochemical
assay.setup: buffer; hydrolytic halflife, physiological pH (7.0), 19F compound, calculated from the kinetics
Lab book: enter the figure in h, no units written.

Example cases with answers are listed next.
compound: CC(C)C[Si](F)(CC(C)C)c1ccc(CC(=O)O)cc1
half-life (h): 8.7
--
compound: CC(C)[Si](F)(c1cccc(CCCO)c1)C(C)C
half-life (h): 43.3
--
compound: CC(C)[Si](F)(c1ccc(CCC(=O)O)cc1)C(C)C
half-life (h): 59
--
compound: CC(C)C[Si](F)(CC(C)C)c1ccc(C(=O)O)cc1
half-life (h): 3.5

# input for lookup
What half-life value was documented for this compound, CC(C)[Si](F)(c1ccc(C(=O)O)cc1)C(C)C ?
10.9

###

measurement.protocol: Hydrolytic stability of 19F fluorosilanes (hydrolysis to the hydroxy compound) at physiological pH
Assay type: physicochemical
assay.setup: ratio of hydrolytic halflife to radioactive halflife of 18-F (1.83 hours), pH 7.0
Each entry below carries its reported rel. stability.

Example cases with answers are listed next.
compound: CC(C)C[Si](F)(CCCCC(=O)Nc1ccccc1)CC(C)C [30a - 1F]
rel. stability: 7.5

compound: CC(C)[Si](F)(c1cccc(CCCO)c1)C(C)C [4d - F]
rel. stability: 23.7

compound: CC(C)[Si](F)(c1cccc(CC(=O)O)c1)C(C)C [5e - F]
rel. stability: 10.9

compound: CC(C)[Si](F)(c1cccc(CCCOC2CCCCO2)c1)C(C)C (racemic) [3d - F]
rel. stability: > 54.6

compound: CC(C)[Si](F)(c1ccc(CCC(=O)O)cc1)C(C)C [5c - F]
rel. stability: 32.2

What rel. stability value was documented for this compound, CC(C)[Si](F)(c1ccc(CC(=O)O)cc1)C(C)C [5b - F] ?
13.5

Next compound: CC(C)[Si](F)(c1ccc(C(=O)O)cc1)C(C)C [5a - F]
6.1

Next compound: CC(C)[Si](F)(CCCNC(=O)c1ccccc1)C(C)C [22 - F]
18.4

Next compound: CC(C)[Si](F)(c1ccc(CCCO)cc1)C(C)C [4c - F]
> 54.6

Next compound: CC(C)[Si](F)(c1ccc(CCO)cc1)C(C)C [4b - F]
36.5

###

Each entry below carries its reported remaining at 6 h.
measurement.protocol: Hydrolytic stability of 19F fluorosilanes (hydrolysis to the hydroxy compound) at physiological pH
Format: physicochemical
assay.setup: buffer; fraction of intact 19F compound after 6 hours under hydrolytic conditions at pH 7
Lab book: enter the figure in %, no units written.

Example cases with answers are listed next.
compound: CC(C)[Si](F)(c1ccc(COC2CCCCO2)cc1)C(C)C (racemic) [3a - F]
measure.unit: %
remaining at 6 h: 90
--
compound: CC(C)[Si](F)(c1ccc(CC(=O)O)cc1)C(C)C [5b - F]
measure.unit: %
remaining at 6 h: 82
--
compound: CC(C)[Si](F)(c1ccc(CCCOC2CCCCO2)cc1)C(C)C (racemic) [3c - F]
measure.unit: %
remaining at 6 h: 95
--
compound: CC(C)C[Si](F)(CC(C)C)c1ccc(CC(=O)O)cc1 [5h - F]
measure.unit: %
remaining at 6 h: 61
--
compound: CC(C)[Si](F)(c1ccc(CO)cc1)C(C)C [4a -F]
measure.unit: %
remaining at 6 h: 85

What remaining at 6 h value was documented for this compound, CC(C)[Si](F)(c1ccc(C(=O)O)cc1)C(C)C [5a - F] ?
66

Next compound: CC(C)[Si](F)(c1ccc(CCC(=O)O)cc1)C(C)C [5c - F]
92

###

measurement.protocol: Hydrolytic stability of 19F fluorosilanes (hydrolysis to the hydroxy compound) at physiological pH
Format: physicochemical
assay.setup: buffer; hydrolytic halflife, physiological pH (7.0), 19F compound, calculated from the kinetics
Please note: half-life exactly at 1000 min is label 0. Only values below 1000 min get label 1.

For this compound, is half-life lower than 1000 min? CC(C)[Si](F)(c1ccc(CCCO)cc1)C(C)C [4c - F]
label 0

Next compound: CC(C)[Si](F)(c1cccc(CCC(=O)O)c1)C(C)C [5d - F]
label 0

###

Each entry below carries its reported remaining at 6 h.
measurement.protocol: Hydrolytic stability of 19F fluorosilanes (hydrolysis to the hydroxy compound) at physiological pH
Type: physicochemical
assay.setup: buffer; fraction of intact 19F compound after 6 hours under hydrolytic conditions at pH 7

Example cases with answers are listed next.
compound: F[Si](c1ccccc1)(c1ccccc1)c1ccc(CCOC2CCCCO2)cc1 (racemic)
remaining at 6 h: < 1%
--
compound: CC(C)[Si](F)(c1cccc(CCOC2CCCCO2)c1)C(C)C (racemic)
remaining at 6 h: > 95%

What remaining at 6 h value was documented for this compound, CC(C)[Si](F)(c1cccc(CCCOC2CCCCO2)c1)C(C)C (racemic) ?
> 95%

###

measurement.protocol: Hydrolytic stability of 19F fluorosilanes (hydrolysis to the hydroxy compound) at physiological pH
Type: physicochemical
assay.setup: buffer; hydrolytic halflife, physiological pH (7.0), 19F compound, calculated from the kinetics
Label met when half-life is at or above 30 h; otherwise label not met.

compound: CC(C)[Si](F)(c1cccc(CCO)c1)C(C)C [4e - F]
class.name: not met
//
compound: CC(C)[Si](F)(c1cccc(CCCOC2CCCCO2)c1)C(C)C (racemic) [3d - F]
class.name: met
//
compound: CC(C)[Si](F)(c1ccc(CCOC2CCCCO2)cc1)C(C)C (racemic) [3b - F]
class.name: met
//
compound: CC(C)[Si](F)(c1ccc(CCO)cc1)C(C)C [4b - F]
class.name: met
//
compound: CC(C)C[Si](F)(CCCCC(=O)Nc1ccccc1)CC(C)C [30a - 1F]
class.name: not met

Given F[Si](c1ccccc1)(c1ccccc1)c1ccc(CCOC2CCCCO2)cc1 (racemic) [3f - F] , state whether its half-life is at least 30 h.
not met

Next compound: CC(C)[Si](F)(CCCNC(=O)c1ccccc1)C(C)C [22 - F]
met

###

measurement.protocol: Hydrolytic stability of 19F fluorosilanes (hydrolysis to the hydroxy compound) at physiological pH
Assay type: physicochemical
assay.setup: buffer; hydrolytic halflife, physiological pH (7.0), 19F compound, calculated from the kinetics
Each entry below carries its reported log10(half-life).
Parameter value (number): base-10 log of half-life in h.

Example cases with answers are listed next.
compound: CC(C)[Si](F)(c1ccc(CO)cc1)C(C)C [4a -F]
log10(half-life): 1.45

compound: CC(C)[Si](F)(c1ccc(CCCOC2CCCCO2)cc1)C(C)C (racemic) [3c - F]
log10(half-life): 2.00

compound: CC(C)C[Si](F)(CC(C)C)c1ccc(COC2CCCCO2)cc1 (racemic) [Compound 3g-F]
log10(half-life): 0.91

compound: CC(C)[Si](F)(c1cccc(CC(=O)O)c1)C(C)C [5e - F]
log10(half-life): 1.30

compound: CC(C)C[Si](F)(CC(C)C)c1ccc(CCOC2CCCCO2)cc1 (racemic) [Compound 3h-F]
log10(half-life): 1.28

compound: CC(C)[Si](F)(c1ccc(CC(=O)O)cc1)C(C)C [5b - F]
log10(half-life): 1.39

# input for lookup
What log10(half-life) value was documented for this compound, CC(C)[Si](F)(c1ccc(COC2CCCCO2)cc1)C(C)C (racemic) [3a - F] ?
1.69
